assay: Quantitative High-Throughput drug screen in 47 multiple myeloma cell lines against the NCATS MIPE library collection: OCIMY5_PLB cell viability assay (AID 1918988); conditions: OCI-MY5 myeloma viability, ATP luminescence, 48 h; series mostly up to 45.8 µM; note: nearly all actives have a fitted effect of over 65% in size
Inconclusive results are not listed. Active and inactive are the calls of the source. Calls come from the whole dose curve; as a rule, active = well fitted cell-killing curve with a large enough effect; inconclusive = small, poorly fitted or top-dose-only effect, or effect the other way; inactive = no such curve, though single readings can be large or run the other way.
Possible outcomes: 1 (yes) (active), 0 (no) (inactive)

| compound | label-class |
| --- | --- |
| CCn1cc(-c2ccnc3[nH]c(-c4cccc(CN(C)C)c4)cc23)c(-c2ccc(NC(=O)N(C)C)cc2)n1 | 1 (yes) |
| Cc1c(CN2CCN(S(C)(=O)=O)CC2)sc2c(N3CCOCC3)nc(-c3cnc(N)nc3)nc12 | 1 (yes) |
| Cc1cnc(Nc2ccc(F)cc2Cl)nc1-c1c[nH]c(C(=O)N[C@H](CO)c2cccc(Cl)c2)c1 | 1 (yes) |
| Cc1cc(Nc2nc(N[C@@H](C)c3ccc(F)cc3)c(C#N)cc2F)n[nH]1 | 1 (yes) |
| C=CC(=O)Nc1cccc(Oc2nc(Nc3ccc(N4CCN(C)CC4)cc3)ncc2Cl)c1 | 1 (yes) |
| CC[C@H]1CN2CCc3cc(OC)c(OC)cc3[C@H]2C[C@@H]1C[C@@H]1NCCc2cc(OC)c(OC)cc21 | 1 (yes) |
| Cc1cccc(C=NNc2cc(N3CCOCC3)nc(OCCc3ccccn3)n2)c1 | 1 (yes) |
| CC(=O)Nc1sc2c(c1-c1nc3ccccc3s1)CNC2 | 1 (yes) |
| C[C@]1(CO)CN(c2cc(C(=O)Nc3ccc4c(c3)-c3c(c(C(N)=O)nn3-c3ccc(F)cc3)CC4)c(Cl)cn2)C[C@@]1(C)CO | 1 (yes) |
| CC1(C)CC(=O)c2c(C(F)(F)F)nn(-c3ccc(C(N)=O)c(NC4CCC(OC(=O)CN)CC4)c3)c2C1 (stereo not drawn) | 1 (yes) |
| CC1(C)O[C@@H]2C[C@@H]3[C@H]4C[C@@H](F)C5=CC(=O)C=C[C@]5(C)[C@@]4(F)[C@@H](O)C[C@]3(C)[C@]2(C(=O)CO)O1 | 1 (yes) |
| CN(C1CCc2c(c3ccccc3n2CC(=O)O)C1)S(=O)(=O)c1ccc(F)cc1 (stereo not drawn) | 1 (yes) |
| O=C(Nc1nc2cccc(-c3ccc(CN4CCS(=O)(=O)CC4)cc3)n2n1)C1CC1 | 1 (yes) |
| CNC(=O)c1nn(C)c2c1C(C)(C)Cc1cnc(Nc3ccc(N4CCN(C)CC4)cc3)nc1-2 | 1 (yes) |
| Cc1cc(Nc2cc(CN3CCOCC3)c3nc(C)c(Cc4ccc(Cl)cc4F)n3n2)n[nH]1 | 1 (yes) |
| CC[C@@]1(O)C(=O)OCc2c1cc1n(c2=O)Cc2cc3cc(O)ccc3nc2-1 | 1 (yes) |
| C#Cc1cccc(Nc2ncnc3cc(OC)c(OCCCCCCC(=O)NO)cc23)c1 | 1 (yes) |
| COc1cc(Nc2ncc(F)c(Nc3ccc4c(n3)N(COP(=O)(O)O)C(=O)C(C)(C)O4)n2)cc(OC)c1OC | 1 (yes) |
| CNC(=O)c1ccc(-c2cnc3ncc(Cc4ccc5ncccc5c4)n3n2)cc1F | 1 (yes) |
| Cc1ccc2nc(NC(=O)CSc3nc4c(c(=O)n3-c3ccccc3)SCC4)sc2c1 | 1 (yes) |
| Cc1[nH]nc2ccc(-c3cncc(OC[C@@H](N)Cc4ccccc4)c3)cc12 | 1 (yes) |
| CC(=O)OCCN1C(=O)c2c(C)nc3ccc(S(=O)(=O)N4CCOCC4)cc3c2C1=O | 0 (no) |
| O=C(Nc1cn[nH]c1-c1nc2ccc(CN3CCOCC3)cc2[nH]1)NC1CC1 | 1 (yes) |
| Nc1nc(Nc2ccc(S(N)(=O)=O)cc2)nn1C(=O)c1c(F)cccc1F | 1 (yes) |
| Cc1nc2cnc3ccc(C#Cc4cccnc4)cc3c2n1-c1ccc(C(C)(C)C#N)cc1 | 1 (yes) |
| O=C(O)c1ccc2c(c1)nc(Nc1cccc(Cl)c1)c1ccncc12 | 1 (yes) |
| O=C(Cc1ccc(-c2ccc(OCCN3CCOCC3)cc2)cn1)NCc1ccccc1 | 1 (yes) |
| C=CC(=O)Nc1cc2c(Nc3ccc(F)c(Cl)c3)ncnc2cc1C#CC(C)(C)N1CCN(C)CC1 | 1 (yes) |
| C=CCn1c(=O)c2cnc(Nc3ccc(N4CCN(C)CC4)cc3)nc2n1-c1cccc(C(C)(C)O)n1 | 1 (yes) |
| COc1cc2ncnc(Nc3ccc(F)c(Cl)c3)c2cc1NC(=O)C=CCN1CCCCC1 | 1 (yes) |
| CC(C)c1ccccc1Cc1cc(C(=O)Nc2ccc(S(=O)(=O)c3ccccc3C(C)(C)C)cc2)c(O)c(O)c1O | 1 (yes) |
| COC(=O)[C@]12CCC(C)(C)C[C@@H]1[C@@H]1C(=O)C=C3[C@@]4(C)C=C(C#N)C(=O)C(C)(C)[C@@H]4CC[C@@]3(C)[C@]1(C)CC2 | 1 (yes) |
| Nc1cc(C(F)(F)F)c(-c2cc(N3CCOCC3)nc(N3CCOCC3)n2)cn1 | 1 (yes) |

Value source: PubChem BioAssay (NCATS)
